- TARGET_OF_ASSAY: T1, ErbB4 (Rattus norvegicus, UniProt Q62956)
- T1 construct: forming the ErbB2/ErbB4 complex in cardiomyocytes and the ErbB2/ErbB3 complex in Schwann cells; endogenous in cells; host or cells: primary neonatal rat cardiomyocytes (Sprague Dawley pups, 0 to 4 days old)
- EXPERIMENT_SUMMARY: In vitro phosphorylation of Akt in neonatal rat cardiomyocytes
- Assay type: cell-based
- SETTINGS: ratio of EC50s Schwann cells/cardiomyocytes
Items are presented alongside their recorded Selectivity SC/CM.

The cases that follow already have their Selectivity SC/CM on record.
MOLECULE	Selectivity SC/CM
huNRG1(S177-S228)(wt)::3x(G4Q)::huFcSEFL2 (Pb): Fc fusion of wild-type NRG1 fragment S177-S228 (protein, huNRG1(S177-S228)(wt)::3x(G4Q)::huFcSEFL2 (Pb)) STYRCVSVLTVLHQDWLNGKEYKCKVSNKALPAPIEKTISKAKGQPREPQVYTLPPSREEMTKNQVSLTCLVKGFYPSDIAVEWESNGQPENNYKTTPPVLDSDGSFFLYSKLTVDKSRWQQGNVFSCSVMHEALHNHYTQKSLSLSPGK	0.03
huNRG1(S177-F229)(NRGE1C) (E47K_D48T_F49S_M50L) 6xHis: 6xHis-tagged NRG1 variant SEQ ID NO:120 (protein, 6xHis tag; huNRG1(S177-F229)(NRGE1C) (E47K_D48T_F49S_M50L) 6xHis) SHLVKCGEKHKSFCVNGGECFMIEGPSNPSRYLCKCPNEFTGDRCQKTSLASFGGGGEGGGGAGGGGHHHHHH	>10000
huNRG1(S177-F229)(NRGE1D) 6xHis: 6xHis-tagged NRG1 variant SEQ ID NO:126 (protein, 6xHis tag; huNRG1(S177-F229)(NRGE1D) 6xHis) SHLVKCGESHKSFCVNGGECYMVEGSSIPSRYLCKCPNEFTGDRCQEDFMASFGGGGEGGGGAGGGGHHHHHH	>10000
huNRG1(S177-F229)(NRGE1D) (E47V_D48T_F49R_M50L) 6xHis: 6xHis-tagged NRG1 variant SEQ ID NO:130 (protein, 6xHis tag; huNRG1(S177-F229)(NRGE1D) (E47V_D48T_F49R_M50L) 6xHis) SHLVKCGESHKSFCVNGGECYMVEGSSIPSRYLCKCPNEFTGDRCQVTRLASFGGGGEGGGGAGGGGHHHHHH	>10000

// moving on: another record for Selectivity SC/CM
For this molecule ( huNRG1(S177-F229)(NRGE1C) (E47S_D48A_F49L_M50T) 6xHis: 6xHis-tagged NRG1 variant SEQ ID NO:122; ErbB4 selective agonist without Fc of Example 3 (protein, 6xHis tag; huNRG1(S177-F229)(NRGE1C) (E47S_D48A_F49L_M50T) 6xHis) SHLVKCGEKHKSFCVNGGECFMIEGPSNPSRYLCKCPNEFTGDRCQSALTASFGGGGEGGGGAGGGGHHHHHH ), measured Selectivity SC/CM is >10000
